Test system: Fibroblast
Test: Multiplex assay against human fibroblast
Type: toxicity, cell-based
Measurement Conditions: 48 h, 1 µM, compound concentration 1 uM, replicate 1
Quantity: Population Hoechst High Intensity Objects (%)
One number for each entry, in %.

Record excerpt, results attached:
compound=N#Cc1c(Oc2cccc(OS(=O)(=O)CCCC(F)(F)F)c2)cccc1C(F)(F)F observed_value=7
compound="Cl.N=C(N)NC(=O)Cc1c(Cl)cccc1Cl [GUANFACINE HYDROCHLORIDE]" observed_value=1
compound=Cc1noc(-c2ccc(-c3ccc(CC(=O)O)cc3)cc2)c1NC(=O)O[C@H](C)c1ccccc1Cl observed_value=1
compound=CC[C@@H](C)Nc1nc(C)nc2c(-c3ccc(OC)nc3C)c(C)nn12 observed_value=8
compound="Cc1sc2c(c1C)C(c1ccc(Cl)cc1)=N[C@@H](CC(=O)NCCCCCCCCNC(=O)COc1cccc3c1C(=O)N(C1CCC(=O)NC1=O)C3=O)c1nnc(C)n1-2 (some centres undefined)" observed_value=27

Dear reader, for each entry below, please note its Population Hoechst High Intensity Objects (%).
1. Cc1cnc(-c2cc(N3CCN(C(=O)CCS(C)(=O)=O)CC3)ncc2Cl)c(C)c1
2. NCCc1cn(S(=O)(=O)c2c(Cl)nc3sccn23)c2ccccc12.O=C(O)C(=O)O
3. Br.CS(=O)(=O)Nc1c(O)ccc2c1CCCC2C1=NCCN1 (centres undefined)

Found:
1: 2; 2: 4; 3: 4

Lookup: Form entry - test system: Fibroblast; read-out: Population Hoechst High Intensity Objects (%); compound: CCCOc1ccc2[nH]cc(C3=CCNCC3)c2n1.Cl
Found: 2
